meta.source: patent US20210040184A1

- SYSTEM: HIV-1 REJO4541.67 envelope (Env) on Env.IMC.LucR virus (HIV-1 clade B)
- TEST DETAILS: cell-based or functional assay
ENDPOINT: IC50 of virus neutralization (TZM-BL, luciferase) (µg/mL)

BINDER	NUMERIC RESULT
NglycoSA (antibody, V domains shown) VH: ADLVQSGAVVKKPGDSVRISCEAQGYRFPDYIIHWIRRAPGQGPEWMGWMNPMGGQVNIPWKFQGRVSMTRDTSIETAFLDLRGLKSDDTAVYYCVRDRSNGAGKRFESSNWFLDLWGRGTAVTIQS VL: QSALTQPRSVSASPGQSVTISCTGTHNLVSWCQHQPGRAPKLLIYDFNKRPSGVPDRFSGSGSGGTASLTITGLQDDDDAEYFCWAYEAFGGGTKLTVL	0.04
